- tested.target: Sodium-dependent dopamine transporter (Homo sapiens, UniProt Q01959)
- Sequence (Q01959 whole entry): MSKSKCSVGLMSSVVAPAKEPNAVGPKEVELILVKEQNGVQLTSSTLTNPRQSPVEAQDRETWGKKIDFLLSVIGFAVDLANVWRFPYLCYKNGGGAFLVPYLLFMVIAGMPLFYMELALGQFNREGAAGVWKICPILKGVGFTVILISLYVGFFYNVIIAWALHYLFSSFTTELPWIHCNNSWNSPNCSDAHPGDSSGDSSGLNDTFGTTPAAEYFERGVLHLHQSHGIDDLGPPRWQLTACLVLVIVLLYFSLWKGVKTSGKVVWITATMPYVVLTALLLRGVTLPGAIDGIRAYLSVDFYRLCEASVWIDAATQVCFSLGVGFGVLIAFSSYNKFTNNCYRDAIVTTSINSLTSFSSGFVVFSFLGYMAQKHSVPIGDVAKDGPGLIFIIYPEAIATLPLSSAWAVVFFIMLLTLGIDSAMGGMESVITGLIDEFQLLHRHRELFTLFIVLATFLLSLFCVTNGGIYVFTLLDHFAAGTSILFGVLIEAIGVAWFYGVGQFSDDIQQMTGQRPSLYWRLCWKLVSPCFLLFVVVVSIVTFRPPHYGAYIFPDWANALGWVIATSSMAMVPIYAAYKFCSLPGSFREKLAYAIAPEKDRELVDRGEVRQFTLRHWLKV
- protocol.text: Inhibition of [3H]dopamine uptake at human DAT expressed in mouse N2A cells
- Assay type: cell-based
endpoint: log10(IC50) (log10 of the value in µM)
Quick note: numbers are log10 of IC50, with µM as the unit.

Take a look at these entries with their results.
compound: COC(=O)[C@H](c1ccc(I)cc1)[C@H]1CCCCN1 (racemic)
log10(IC50): -1.96
//
compound: COC(=O)[C@H](c1cccc(I)c1)[C@H]1CCCCN1Cc1ccccc1N=[N+]=[N-] (racemic)
log10(IC50): 0.43

Note: attention shifts to another entry.
Incoming: Tell me the measured log10(IC50) of COC(=O)[C@H](c1ccc(I)cc1)[C@H]1CCCCN1Cc1cccc(N=[N+]=[N-])c1 (racemic) , please.
Outgoing: 0.90

From: ChEMBL document CHEMBL1641574
